B1: TPR t1 (parent)
chain: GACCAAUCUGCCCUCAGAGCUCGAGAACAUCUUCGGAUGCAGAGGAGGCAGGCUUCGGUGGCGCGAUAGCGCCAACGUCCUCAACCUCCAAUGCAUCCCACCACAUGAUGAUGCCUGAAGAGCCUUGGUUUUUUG

Variants of: B1
Assay: polymerase ribozyme fitness, log enrichment relative to wild type (log ratio); higher = more active; in vitro selection for triplet polymerase activity
ATTRIBUTE MEASURED: polymerase ribozyme fitness (log ratio)
Answers are plain numbers.

// known answers, use as guide
[
  {
    "RESIDUES": "GACCAAACUGCCCUCAGAGUUCGAGAACAUCUUCGGAUGCAGAGGAGGCAGGCUUCGGUGGCGCGAUAGCGCUAACGUCCUCAACCUCCAAUGCAUCCCACCACAUGAUGAUGCCUGAAAAGCCUUGGCUGUUUG [U7A C20U C73U G120A U129C U131G]",
    "polymerase ribozyme fitness (log ratio)": -0.869
  },
  {
    "RESIDUES": "GACCAAUCUGCCCUCAGAGCUCGAGAACAUCUUCGGAUGCAGAGGAGGCAGGCUUGGGUGGCGCGAUAUCGCCAACGUCCUCAACCUCCAAUGCAUCCCACCACAUGAUGAUGCCUGAAGAGCCUUGGUUUUUUG [C56G G69U]",
    "polymerase ribozyme fitness (log ratio)": -0.682
  },
  {
    "RESIDUES": "GACCAAUCUGCCCUCAGAGCUCGAGAACAUCUUCGGAUGCAGAGGAGGCAGGCUUCGGUGGCGCGAUAGCGCCAACGUCCUCAACCUCCAAUGAAUCCCACCACUUGAUGAUGCCUGAAGCGCCUUGGUUUUUUG [C94A A105U A121C]",
    "polymerase ribozyme fitness (log ratio)": -2.21
  },
  {
    "RESIDUES": "GACCAAUCUGCCCUCAGAGCUCGAGAACAUCUUCGGAUGCAGAGGAGGCAGGCUUCGGUGGCGCGAUAGCGCCAACGUCCUCAACCUCCAAUGCAUCCCACCACAUGAUGCUGCCUGAAGAGCUUUGCAUUUUUG [A111C C124U G128C U129A]",
    "polymerase ribozyme fitness (log ratio)": -3.3
  },
  {
    "RESIDUES": "GACCAAUCUGCCCUCAGAGCUCGAGAACAUCUUCGGAUGCAGAGGAGGCAGGCUUCGGUGGCGCGAUAGCCCCAACGUGCUCAACCUCCAAUGCAUCCCACCACAUGAUGAUGCCUGAAGAGCCUUGGUUUUUUG [G71C C79G]",
    "polymerase ribozyme fitness (log ratio)": -1.96
  },
  {
    "RESIDUES": "GACCAAUCUGCCCUCAGAGCUCGAGAACAUCUUCGGAUGCAGAGGAGGCAGGCUUAGGUGGCGCGAUAGCGACAACGUCCUCAACCUCCAAUGCAUCCCACCACAUGAUGAUGCCUGAAGAGCCUUGGUUUUUUG [C56A C72A]",
    "polymerase ribozyme fitness (log ratio)": -0.579
  },
  {
    "RESIDUES": "GACCAAUCUGCCCUCAGAGCUCGAGAACAUCUUCGGAUGCAGAGGAGGCAGGCUUCGGUGGCCCGAUAGCGCCAACGUCCUCAACCUCCAAUGCAUCCCACCACAUGAUGAUGCCUGAAGAGACUUAGUUUUUUC [G63C C123A G127A G135C]",
    "polymerase ribozyme fitness (log ratio)": -0.151
  },
  {
    "RESIDUES": "GACCAAUCUGCCCUCAGAGCUCGAGAACAUCUUCGGAUGCAGAGGAGGCAGGCUUCGGUAGCGCGAUAGCGCCAACGUCCUCAACCUCCAAUGCAUCCAACCCCAUGAUGCUGCCUGAAGAGCCUUGGUUUUUUG [G60A C99A A103C A111C]",
    "polymerase ribozyme fitness (log ratio)": -6.52
  }
]

Quick request: polymerase ribozyme fitness (log ratio) for each listed item, please.
1. GACCAAUCUGCCCUCAGAGCUCGAGAACAUCUUCGGAUGCAGAGGACGCAGGCUUCGGUGGCGCGAUAGCGCCAACGUCCUCAACCUCCAAUGCAUCCCACCACAUGAUGAUGCCUAAAGAGCCUUGGUUUUUUG [G47C G117A]
2. GUCCAAUCUGCCCUCAGAGCUCGAGAACAUCUUCGGUUGCAGAGGAGACAGGUUUCGGUAGCGCGAUAGCGCCAACGUCCUCAAACUCCAAUGCAUCCCACCACAUGAUGAUGCCUGAAGAGCCUUGGUUUUUUG [A2U A37U G48A C53U G60A C85A]
3. GACCAAUCUGCCCUCAGAGCUCGAGAACAUCUUCGGAUCCAGAGGAGGCAGGCUUCGGUGGCGCGAUAGCGCCAACGUCCUCAACCUUCAAUGCAUCCCACCACAUGAUGAUGCCUGAAGAGCCUUGGUUUUUUU [G39C C88U G135U]

1: -2.73; 2: -3.47; 3: -2.39
